# ASSAY METHOD TEXT: gradient 5% acetonitrile 3 min, to 50% in 2 min, to 85% in 15 min, held 3 min, 100 µL/min
# EXPERIMENTAL CONTEXT: column: Zorbax Extend-C18 2.1 x 50 mm; eluents: water / acetonitrile, 0.1% formic acid
ENDPOINT LABEL: RP-LC retention time (s)

CC1(C(=O)NC2CCCCCC2)Cn2c(cc3occc32)C(=O)N1Cc1cccnc1 (configuration not stated) | 661
O=C(Nc1ccc2c(c1)OCCO2)C1CCN(c2cc(N3CCCCC3)ncn2)CC1 | 667
Cc1ccc(CNc2nnc(N3CCOCC3)c3ccccc23)cc1 | 678
Cc1cc(NC(=O)C2CCN(C(=O)c3nc4ccccc4s3)CC2)no1 | 746
COc1ccc(CC(=O)N2CCC3(CC2)NC(=O)c2cc(F)ccc2N3C)cc1 | 768
CCC1CCCCN1Cc1nc(Cn2ccn3nc(-c4ccc(F)cc4)cc3c2=O)no1 (configuration not stated) | 704
Cc1nc2cc(-c3ccc(Cl)cc3)nn2c(C)c1CCC(=O)N1CCN(c2ccccn2)CC1 | 727
CCOc1cc(C2C(C(=O)N3CCCCC3)=C(C)NC3=C2C(=O)CCC3)ccc1OC(C)=O (configuration not stated) | 710
Cc1ccc(NC(=O)Cn2c(N3CCCC3)nc(C)cc2=O)c(C)c1 | 669
O=C(Cc1ccsc1)NCC1CCCCC(=O)N1 (configuration not stated) | 619
O=C(CCCc1ccccc1)N1CCN(c2cc(-c3cccs3)[nH]n2)CC1 | 860
Cc1nc(-c2csc(S(=O)(=O)N3CCC(C(=O)NCc4cccnc4)CC3)c2)no1 | 618

----------
# ASSAY METHOD TEXT: gradient 5% acetonitrile 3 min, to 50% in 2 min, to 85% in 15 min, held 3 min, 100 µL/min
# EXPERIMENTAL CONTEXT: column: Zorbax Extend-C18 2.1 x 50 mm; eluents: water / acetonitrile, 0.1% formic acid
ENDPOINT LABEL: RP-LC retention time (s)

Example compounds with recorded RP-LC retention time:
Cn1cccc1C(=O)C(=O)N1CCN(C(c2ccccc2)c2ccccc2)CC1 | 824
COCCN1C(=O)c2ccccc2C(C(=O)NCc2ccc(Cl)cc2)C12CCCC2 (stereo unspecified) | 925
CN(C)C(=O)c1cn(-c2ccc(-c3nc(C(C)(C)C)no3)cn2)cn1 | 808
O=C(NC1CC1)C1CCN(C(=O)c2ncn3c2COC(c2ccccc2)C3)CC1 (stereo unspecified) | 619

[A] COc1ccc(NC(=O)c2[nH]c3cc(C)sc3c2CN2CCOCC2)cc1OC
[B] O=C(COc1ccc(F)cc1)N1CCN(C(=O)c2nnn3c2COC(c2ccc(Cl)cc2)C3)CC1 (stereo unspecified)
Req: Compare A and B and name the one whose reported RP-LC retention time is smaller. Refer to your chosen item by its label in the answer.
Resp: A
(A: 635 s, B: 937 s)

[a] CC1CCN(C(=O)C2CCN(c3cncnc3N(C)C)CC2)CC1
[b] CC(C)C(NC(=O)Nc1ccc2c(c1)OCO2)C(=O)N1CCc2ccccc21 (stereo unspecified)
Req: Lower value of RP-LC retention time belongs to which: a or b ? // caller expects the label of the chosen entry
Resp: a
(a: 624 s, b: 898 s)

----------
# ASSAY METHOD TEXT: gradient 5% acetonitrile 3 min, to 50% in 2 min, to 85% in 15 min, held 3 min, 100 µL/min
# EXPERIMENTAL CONTEXT: column: Zorbax Extend-C18 2.1 x 50 mm; eluents: water / acetonitrile, 0.1% formic acid
ENDPOINT LABEL: RP-LC retention time (s)

COc1ccc(-c2nc3ccccn3c2Nc2ccc(C)cc2)cc1 | 701
COc1cc(C(C)=O)ccc1OCCCN1CCC(c2noc3cc(F)ccc23)CC1 | 720
O=C(NC1CCCCCC1)C1CCCN(S(=O)(=O)c2c[nH]c(C(=O)N3CCCCCC3)c2)C1 (configuration not stated) | 926
CC(NC(=O)c1ccc2c(c1)nc1n2CCN(C2CCCCC2)C1=O)c1ccccc1 (configuration not stated) | 836
O=C(NC1CCN(c2cc(-c3ccc(F)cc3)[nH]n2)C1)c1ccc(Cl)cc1 (configuration not stated) | 777
COc1ccc2c(c1)C1(CCN(C(=O)c3ccccc3)C1)C(=O)N2 (configuration not stated) | 692
CCS(=O)(=O)c1ccc2c(c1)N(Cc1nc(-c3ccc(C)cc3)no1)C(=O)CO2 | 945
Cn1cccc1C(=O)N1CCC2(CC1)NC(=O)N(Cc1ccccc1Cl)C2=O | 790
Cc1nn2c(-n3ccnc3C)c3c(nc2c1-c1ccccc1)CCC3 | 606
COc1ccc(-n2c(C)nc3ccc(NC(=O)C4CC4)cc3c2=O)cc1 | 683
Cc1cc(C)c2nc(C)cc(C(=O)NCC(C)C)c2c1 | 701
CCn1ccc2sc(C)c(C(=O)NC(C)c3ccc(C)cc3C)c2c1=O (configuration not stated) | 975
O=C(NC1COc2ccccc2C1)N1CCN(c2ccccn2)CC1 (configuration not stated) | 616
CC(=O)N1CCc2cc(-c3ccc(C(=O)NCCN4CCCCC4C)cc3)ccc21 (configuration not stated) | 622
Cc1ccc(NC(=O)Nc2cccc(-c3ccc(N4CCOCC4)nn3)c2)cc1F | 739
COc1ccc(NC(=O)C2CCN(c3cc(N4CCCCC4)ncn3)CC2)cc1OC | 645
COc1cc(/C=C2\SC(=O)N(CC(=O)Nc3nccs3)C2=O)cc(OC)c1OC | 777

----------
# ASSAY METHOD TEXT: gradient 5% acetonitrile 3 min, to 50% in 2 min, to 85% in 15 min, held 3 min, 100 µL/min
# EXPERIMENTAL CONTEXT: column: Zorbax Extend-C18 2.1 x 50 mm; eluents: water / acetonitrile, 0.1% formic acid
ENDPOINT LABEL: RP-LC retention time (s)

Cc1cccc(-c2nc(-c3cccc(-c4ccn[nH]4)c3)no2)c1 | 1100
CCc1nc(-c2csc(S(=O)(=O)N3CCCC(C(=O)Nc4ccc(F)cc4F)C3)c2)no1 (stereo unspecified) | 1060
Cc1cc(-c2nnc(C3CCC3)o2)c(C)n1CC(=O)NCc1ccc(C(F)(F)F)cc1 | 941
Cc1ccc2nc(C(=O)NCc3cc(F)cc(F)c3)cn2c1 | 695
Cc1[nH]c(-c2ccc(Cl)cc2)cc1C(=O)N1CCC(C)CC1 | 1010
COc1cc(Nc2ncc(C(=O)O)c(C(C)C)n2)cc(OC)c1 | 892

----------
# ASSAY METHOD TEXT: gradient 5% acetonitrile 3 min, to 50% in 2 min, to 85% in 15 min, held 3 min, 100 µL/min
# EXPERIMENTAL CONTEXT: column: Zorbax Extend-C18 2.1 x 50 mm; eluents: water / acetonitrile, 0.1% formic acid
ENDPOINT LABEL: RP-LC retention time (s)

# annotated cases, reported RP-LC retention time shown
Cc1ccc(Cl)cc1NC(=O)Nc1cccc(-c2ccc(N3CCOCC3)nn2)c1 | 753
Cc1ccc(NC(=O)N2CCN(c3cc(C)nc(N4CCCC4)n3)CC2)cc1 | 677
O=C(NC1CCCCC1)c1nnc(-c2ccc(S(=O)(=O)N3CCCC3)cc2)o1 | 952
Cc1cc(C(=O)Nc2ccc(F)cc2F)nc2cc(-c3ccco3)nn12 | 1130

[P] C=CCNC(=O)NC1CCN(C2=NS(=O)(=O)C(c3ccccc3)=C2C)CC1
[Q] O=C(CCC1CCCC1)Nc1nc(-c2ccc(Cl)cc2)cs1
Req: Pick one, P or Q : lowest reported RP-LC retention time. Your answer should be the label of the entry you select.
Resp: P
(P: 705 s, Q: 1290 s)

----------
# ASSAY METHOD TEXT: gradient 5% acetonitrile 3 min, to 50% in 2 min, to 85% in 15 min, held 3 min, 100 µL/min
# EXPERIMENTAL CONTEXT: column: Zorbax Extend-C18 2.1 x 50 mm; eluents: water / acetonitrile, 0.1% formic acid
ENDPOINT LABEL: RP-LC retention time (s)

# example entries with known answers
CCCC1CCC(C(=O)Nc2ccc3nc(N4CCN(c5ncccn5)CC4)cc(C)c3c2)CC1 (stereo not drawn) | 878
O=C(NCCc1ccccc1)C1CCCN(C(=O)c2cccc(C(F)(F)F)c2)C1 (stereo not drawn) | 903
CCCNC(=O)C1CCN(c2ccc(SCC(=O)Nc3cc(C)ccc3OC)nn2)CC1 | 700
COc1cccc(CNC(=O)c2ccc3c(c2)N(C)C(=O)c2ccccc2O3)c1 | 852
CC(C)(C)CN(C(=O)c1ccc(F)cc1)c1ccncc1 | 640

[a] Cc1nnc2c(NC(=O)c3ccsc3)cccn12
[b] Cc1ccc(N2C(=O)CN(S(C)(=O)=O)CC2(C)C(=O)NC2CCCCCC2)cc1F (stereo not drawn)
Req: Of a and b , whose reported RP-LC retention time is the larger number? // caller expects the label of the chosen entry
Resp: b
(b: 905 s, a: 606 s)

[A] Cc1cc(NC(=O)CSc2nnc(CNC(=O)c3c(F)cccc3Cl)o2)no1
[B] Cn1nccc1-c1cccc(-c2noc(-c3ccccc3)n2)c1
Req: I need your help: which of the pair A , B has higher RP-LC retention time? Respond with the label that goes with your answer.
Resp: B

[a] CCOc1ccc(NC(=O)c2cc(C(C)C)n(C3CCS(=O)(=O)C3)n2)cc1 (stereo not drawn)
[b] Cc1cncn(CC(=O)NC2CCCC2)c1=O
Req: Rank a against b by their RP-LC retention time values and give the higher one. Please reply using the label of the selected record.
Resp: a
(a: 877 s, b: 576 s)

Hello, the source for this data is the METLIN SMRT retention time set (Domingo-Almenara et al. 2019), in case you need it.
